Entry source: paper PMC9127587

Reported koff values for the following binders.
system tested: CFH18-20 (human complement factor H CCP18-20) with myc tag and His-tag (human) (UniProt P08603)
Sequence (P08603 1046-1231): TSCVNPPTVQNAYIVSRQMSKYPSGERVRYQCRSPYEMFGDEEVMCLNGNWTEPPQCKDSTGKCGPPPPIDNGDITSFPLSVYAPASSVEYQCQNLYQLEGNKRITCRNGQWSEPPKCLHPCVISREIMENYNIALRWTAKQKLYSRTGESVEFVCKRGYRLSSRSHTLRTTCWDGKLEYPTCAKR
protocol text: SPR; CFH18-20 (or W1183A) immobilised on a CM5 chip by amine coupling at around 300 RU; VHH4 or its mutants injected as analyte at 30 uL/min; single-cycle kinetics; PBS pH 7.4, Tween 20 (0.005%), 25 °C; Biacore 8K
Number in s⁻¹, nothing else.

Some binders with recorded koff:
>>> assay_value("VHH4 P102A (VHH) VHH: QVQLVESGGGLVQAGGSLRLSCAASGLTVDDYAIGWFRQAPGKEREGVSCISSSNGSTYYADSVKGRFTISSDNAKNTAYLQMNSLKPEDTAVYYCAAAVSANLECGTGPFGIYASYYGMDYWGQGTQVTVSS")
"4.07e-06"
>>> assay_value("VHH4 G119A (VHH) VHH: QVQLVESGGGLVQAGGSLRLSCAASGLTVDDYAIGWFRQAPGKEREGVSCISSSNGSTYYADSVKGRFTISSDNAKNTAYLQMNSLKPEDTAVYYCAAAVSPNLECGTGPFGIYASYYAMDYWGQGTQVTVSS")
0.000611
>>> assay_value("VHH4 Y95A (VHH) VHH: QVQLVESGGGLVQAGGSLRLSCAASGLTVDDYAIGWFRQAPGKEREGVSCISSSNGSTYYADSVKGRFTISSDNAKNTAYLQMNSLKPEDTAVYACAAAVSPNLECGTGPFGIYASYYGMDYWGQGTQVTVSS")
"4.42e-06"

Please find the next binder below.
Task: Need koff, item VHH4 Y117A (VHH) VHH: QVQLVESGGGLVQAGGSLRLSCAASGLTVDDYAIGWFRQAPGKEREGVSCISSSNGSTYYADSVKGRFTISSDNAKNTAYLQMNSLKPEDTAVYYCAAAVSPNLECGTGPFGIYASAYGMDYWGQGTQVTVSS
Result: 5.39e-07
